The measured values listed here are drawn from patent US20070059799A1.

- system.tested: HLA-A*0201 (Human)
- protocol: competition with 125I-labeled probe peptide for purified HLA, gel filtration
- particulars: remark: other sources report otherwise
Recorded measurements of IC50, one per entry
Answer in nM, number only, no unit symbol.

Worked examples follow.
binder	unit.string	measured.result
MMWYWGPSL (modifications not checked) [HBV ENV 360 peptide 1039.031 (…)]	nM	5.6
FLLAQFTSA (modifications not checked) [HBV POL 524 peptide 1069.073 (…)]	nM	6

# context switch: different binder, same IC50
Quickly give me recorded IC50 for VLLDYQGMLPV (modifications not checked) [HBV ENV 259 peptide 1147.14 (…)]
8.6
